Kd reference
- test.system: T1, CHO hOPGL 140 (human, UniProt O14788)
- T1 chain: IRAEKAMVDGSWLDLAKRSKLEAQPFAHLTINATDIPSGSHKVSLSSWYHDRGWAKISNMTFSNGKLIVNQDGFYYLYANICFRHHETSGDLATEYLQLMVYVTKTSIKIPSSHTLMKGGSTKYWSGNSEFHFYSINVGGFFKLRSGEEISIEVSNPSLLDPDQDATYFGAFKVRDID
- experimental.protocol: SPR
Please respond with the number in nM and leave the unit unwritten.

These recorded examples may help you get a feel for the data.
binder="9H7 (antibody, V domains shown) VH: EVQLVQSGGGLVHPGGSLRLSCEGSGFTFSSNGMHWVRQTPGKGLEWVSGIGTAGGTYYADSVKGRFTISRDNVKKSLYLQMNSLRAEDMAIYYCVRKDWGWFDPWGQGALVTVSS VL: EIVLTQSPATLSLSPGERATLSCRASQSISSYLAWYQQKPGQAPRLLIYDASNRATGIPARFSGSGSGTDFTLTISSLEPEDFAVYYCQQRSKWPPYTFGQGTKLEIKR" endpoint_result=0.193
binder="22B3 (antibody, V domains shown) VH: EVQLVQSGGGLVHPGGSLRLSCEGSGFTFSSNGMHWVRQTPGKGLEWVSGIGTAGGTYYADSVKGRFTISRDNVKKSLYLQMNSLRAEDMAIYYCVRKNWGWFDPWGQGALVTVSS VL: EIVLTQSPATLSLSPGERATLSCRASQSVNSYLAWFQQKPGQAPRLLIYDASNRATGIPARFSGSGSGTDFTLTISSLEPEDFAIYYCQQRSNWPPFTFGQGTKLEIKR" endpoint_result=0.0337
binder="2E11 (antibody, V domains shown) VH: EVQLVQSGGDLVHPGGSLRLSCVGSGFTFSHYPLHWVRQAPGKGLEWISGIHTGGGTYYTDSVKGRFTISSDNAKNSLYLQMNTLRAEDMAVYYCARGRNSFDYWGQGTLVIVSS VL: DIQMTQSPSSLSASVGDRVTITCRASQGISSWLAWYQQKPEKAPKSLIYAASSLQSGVPSRFSGSGSGTDFTLTISSLQSEDFATYYCQQYNSYPPTFGQGTRLEIKR" endpoint_result=0.292
binder="18B2 (antibody, V domains shown) VH: EVQLVQSGGGLVHPGGSLRLSCVGSRFTFSAYPMHWVRQAPGKGLEWVSGIGSGGGTNYADSVKGRFTISRDTAKNSLYLQMNSLRAEDMAVYYCARGRNSFDYWGQGTLVTVSS VL: DIQMTQSPSSLSASVGDRVTITCRASQGISTWLAWYQQKPEKAPKSLIYAASSLQSGVPSRFSGSGSGTDFTLTISSLQPEDFATYYCQQYNSYPPTFGQGTKVEIKR" endpoint_result=0.211
binder="16E1 (antibody, V domains shown) VH: EVQLVQSGGGLVHPGGSLRLSCAGSGFTFSGHALHWVRQAPGKGLEWVSGIGTHGGTYYADSVKGRFTISRDNAKNSLFLQMNSLSAEDMAVYYCTRRNWGQFDYWGQGTLVTVSS VL: EIVLTQSPATLSLSPGERATLSCRASQSVSSYLAWYQQKPGQAPRLLIYDASNRATGIPARFSGSGSGTDFTLTISSLEPEDFAVYYCQQRSNWPPYTFGQGTKLEIKR" endpoint_result=0.0633

// switching to the query binder
Problem: Quick one: Kd of 2D8 (antibody, V domains shown) VH: EVQLVQSGGGLVHPGGSLRLSCAGSGFTFSSYGMHWVRQAPGKGLEWVSGIGTGGGTYYADSVKGRFTISRDNVKNSLYLQMNSLRAEDMAVYYCARKNWGWFDYWGQGTLVTVSS VL: EIVLTQSPATLSLSPGERATLSCRASQSISSYLAWYQQKPGQAPRLLIYDASNRATGIPARFSGSGSGTDFTLTISSLEPEDFAVYYCQQRSKWPPYTFGQGTKLEIKR ?
Result: 0.092
